Biological target: T1, cynomolgus monkey E-selectin extracellular domain with 10 His purification tail (cynomolgus monkey, UniProt P16581 22-554 (human entry))
T1 construct: also called cynomolgus E-selectin; truncated cynomolgus monkey E-selectin
T1 chain: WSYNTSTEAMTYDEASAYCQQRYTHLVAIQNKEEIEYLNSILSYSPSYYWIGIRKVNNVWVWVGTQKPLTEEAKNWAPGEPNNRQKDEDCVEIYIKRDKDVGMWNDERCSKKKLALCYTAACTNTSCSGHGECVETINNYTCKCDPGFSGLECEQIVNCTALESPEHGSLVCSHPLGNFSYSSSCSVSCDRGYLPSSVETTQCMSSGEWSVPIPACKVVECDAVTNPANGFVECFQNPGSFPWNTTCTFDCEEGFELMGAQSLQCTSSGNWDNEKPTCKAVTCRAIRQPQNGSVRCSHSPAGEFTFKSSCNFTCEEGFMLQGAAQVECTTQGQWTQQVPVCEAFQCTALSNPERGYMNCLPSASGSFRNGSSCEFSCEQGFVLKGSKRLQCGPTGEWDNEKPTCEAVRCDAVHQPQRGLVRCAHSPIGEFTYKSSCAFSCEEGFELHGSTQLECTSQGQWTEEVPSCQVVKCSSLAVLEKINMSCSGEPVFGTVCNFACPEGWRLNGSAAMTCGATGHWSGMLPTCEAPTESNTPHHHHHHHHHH
Assay: SPR, antibody captured, E-selectin analyte
Quantity Name: t½

[[record]]
binder = "anti-E-selectin antibody 0039 chimera (antibody, human IgG1, kappa, V domains shown, rat VH/VL on effector-null human IgG1 and human kappa) VH: QVQLKETGPGLVQPTQTLSITCTVSGFSLTGYYMQWVRQTPGKGLEWMGFIRSSGSTEYNSEFKSRLSISRDTSKNQVFLKMNSLKTEDTGVYYCARCPYKYSSFVYVGVMDAWGQGAPVTVSS VL: EIVMTQSPTSMSTSIGERVTLNCKASQTVGINVDWYQQTPGQPPKLLIYGASNRHTGVPDRFTGSGFGRDFTLTISNVEAEDLAVYCCLQYGSIPHTFGPGTKLELKR"
reported_value = "184 s"

[[record]]
binder = "anti-E-selectin antibody 0170 chimera (antibody, human IgG1, kappa, V domains shown, rat VH/VL on effector-null human IgG1 and human kappa) VH: EVQLQQSGAELGKPGTSVKLSCKVSGYSIRSTYMHWVNQRPGKGLEWVGRIDPANGNTIYAERFKNKATLTADTSSNTAYMQLSQLKSDDTAIYFCAVEILGIFDYWGQGVMVTVSS VL: DIQMTQSPSFLSASVGDRVTINCKASQNIDKYLDWYQQKLGEAPKLLMYNTNSLHTGIPSRFSGSGSGTDFTLTISSLQPEDVATYFCLQHNSGYTFGAGTKLELKR"
reported_value = "12.3 s"

[[record]]
binder = "anti-E-selectin antibody 0180 chimera (antibody, human IgG1, kappa, V domains shown, rat VH/VL on effector-null human IgG1 and human kappa) VH: EVQLQQSGAELGKPGTSVKLSCKVSGYKIRSSYMHWVNQRPGKGLEWIGRIDPANGNTIYGDKFKSKATLTSDTSSNTAYIQLSQLKSDDTAIYFCAIDIGTTFDYWGQGVMVTVSS VL: DIQMTQSPSFLSASVGDRVTINCKASQHINRYLNWYQQKLGEAPKLLIYDANNLQTGIPSRFSGSGSGTDFTLTISSLQPEDVATYFCLQHNSWPNTFGAGTKLELKR"
reported_value = "0.93 s"

